Measured Specific Activity, Culture, listed per entry for reference.
- System: culture of Flammulina velutipes strain IFO 30601
- protocol-details: Decolorization / oxidative degradation / oxidative polymerization of pigments and lignin by the culture
- Assay type: biochemical
- applied-conditions: reaction pH 7.0, 25° C.; without sign = degradation or decolorization, minus = polymerization activity
Return type: number; implicit unit U/mg Protein.

// known answers, use as guide
1) O=C1/C(=C2\Nc3ccc(S(=O)(=O)[O-])cc3C2=O)Nc2ccc(S(=O)(=O)[O-])cc21.[Na+].[Na+] [Indigo Carmine] | −0.22
2) Cc1cc(-c2ccc(/N=N/c3ccc4c(S(=O)(=O)[O-])cc(S(=O)(=O)[O-])c(N)c4c3O)c(C)c2)ccc1/N=N/c1ccc2c(S(=O)(=O)[O-])cc(S(=O)(=O)[O-])c(N)c2c1O.[Na+].[Na+].[Na+].[Na+] [Evans' Blue] | 0.32

Note: attention shifts to another entry.
API: value(readout= Specific Activity, Culture, system= culture of Flammulina velutipes strain IFO 30601, query= Nc1c(S(=O)(=O)[O-])cc(Nc2cccc(S(=O)(=O)CCOS(=O)(=O)[O-])c2)c2c1C(=O)c1ccccc1C2=O.[Na+].[Na+] [Remazol Brilliant Blue R] )
0.97

====

- Tested on: culture of Flammulina velutipes strain IFO 30601
- protocol-details: Direct oxidation reaction by the culture
- Type: biochemical
- applied-conditions: pH 7.0, relative activities of Table 7
measured-metric: activity of the culture compared with laccase from Japanese lacquer, direct oxidation

// known answers, use as guide
1. Oc1ccccc1O [Catechol] | even higher activity
2. O=C(c1ccc(O)cc1)c1ccc(O)c(O)c1O [2,3,4,4-Tetrahydroxybenzophenone] | higher activity
3. Nc1cccc(O)c1 [m-Aminophenol] | even higher activity
4. Oc1cccc(O)c1 [Resorcinol] | higher activity
5. Nc1ccc(N)cc1 [p-Phenylenediamine] | higher activity
6. Nc1cccc(N)c1 [m-Phenylenediamine] | even higher activity
7. Nc1ccc(O)cc1 [p-Aminophenol] | higher activity
8. CCCOC(=O)c1cc(O)c(O)c(O)c1 [Propyl Gallate] | higher activity
9. Oc1ccc(O)cc1 [Hydroquinone] | even higher activity
10. O=C(O)c1cc(O)c(O)c(O)c1 [Gallic acid] | even higher activity

API: value(readout= activity of the culture compared with laccase from Japanese lacquer, direct oxidation, system= culture of Flammulina velutipes strain IFO 30601, query= Nc1ccccc1O [o-Aminophenol] )
even higher activity

Param item: Cc1ccc(N)cc1O [5-Amino-o-cresol]
even higher activity

Param item: COc1cccc(OC)c1O [2,6-Dimethoxyphenol]
even higher activity

Param item: O=C(c1ccccc1)c1ccc(O)c(O)c1O [2,3,4-Trihydroxybenzophenone]
higher activity

Values from patent US20050170485A1
